Data origin: patent EP0661266A1

Test system: platelet aggregation
Procedure text: Measurement of platelet aggregation inhibition activity (5-HTP plus collagen induced aggregation of platelet rich plasma)
Format: cell-based
Condition details: Oryctolagus cuniculus, rabbit PRP, 5-HTP final concentration 3 µM plus collagen in a concentration which alone does not cause aggregation, probit analysis, read-out: IC₅₀ value
Description: [Measurement of platelet aggregation inhibition activity] Measurement of platelet aggregation was carried out using a platelet aggregation measuring apparatus NSB Hematracer 601. Blood samples were collected from auricular arteries of male Japanese white rabbits (2 to 3 kg) using a syringe containing 1 volume of 3.8% sodium citrate per 9 volumes of blood and centrifuged at 900 rpm for 10 minutes. […]
Counter-ions that a name gives are not always drawn.
Assignment: determine reported IC50 for the given compounds.

Q: Looking for the measured IC50 of COc1ccc(S(=O)(=O)N(CCN2CCC(C(=O)c3ccc(F)cc3)CC2)c2ccccc2OC)cc1 [C, oxalate] , can you help?
Ans: ≥ 1 µM

Q: Looking for the measured IC50 of COc1ccccc1N(CCN1CCC(C(=O)c2ccc(F)cc2)CC1)C(=O)c1ccc(CN)cc1.O=C(O)C(=O)O [H, oxalate] , can you help?
Ans: 0.1 to 0.99 µM

Q: Looking for the measured IC50 of O=C(c1ccc(F)cc1)C1CCN(CCn2c(=O)[nH]c3ccccc3c2=O)CC1 [ketanserin, reference compound] , can you help?
Ans: 0.1 to 0.99 µM

Q: Looking for the measured IC50 of COc1cccc(N(CCN2CCC(C(=O)c3ccc(F)cc3)CC2)C(=O)c2ccc(NC(C)=O)cc2)c1.O=C(O)/C=C/C(=O)O [J, fumarate] , can you help?
Ans: < 0.099 µM

Q: Looking for the measured IC50 of COc1ccccc1N(CCN1CCC(C(=O)c2ccc(F)cc2)CC1)C(=O)c1ccc(CO)cc1.O=C(O)C(=O)O [G, oxalate] , can you help?
Ans: 0.1 to 0.99 µM
